# Read-out: Urokinase-type plasminogen activator receptor (uPAR), PLAUR (gene 5329)
# Test Description: BSK_4H_uPAR: BioMAP Diversity Plus: 4H Assay for Urokinase-type plasminogen activator receptor (uPAR) Biomarker Activity (AID 2283030)
# Condition Summary: primary human endothelial cells (HUVEC); actives raise or lower the signal
Activity calls are given as the source filed them. How the source made its calls: active means hit-call score of the fitted dose curve at least 0.9, where 1 is the maximum; inactive means score below 0.9.
Use one of these outcomes when replying: y for active, n for inactive

Example entries begin here.
[
  {
    "Compound": "C[C@]12CC[C@@H]3c4ccc(O)cc4CC[C@H]3[C@@H]1C[C@@H](O)[C@@H]2O",
    "Category": "n"
  },
  {
    "Compound": "CCCCCCCCCCCCCCCCCC[N+](C)(C)Cc1ccccc1",
    "Category": "y"
  }
]

INPUT: // param item: CCCCC(CC)C(=O)OCCOCCOCCOCCOC(=O)C(CC)CCCC (configuration not stated) ; yields the recorded call
OUTPUT: n

INPUT: // param item: `COCN(COC)c1nc(N(COC)COC)nc(N(COC)COC)n1` ; yields the recorded call
OUTPUT: n

INPUT: // param item: `N=C(N)c1ccc(OCCCCCOc2ccc(C(=N)N)cc2)cc1` ; yields the recorded call
OUTPUT: y

INPUT: // param item: `CC(=O)Nc1ccc(O)cc1` ; yields the recorded call
OUTPUT: n

INPUT: // param item: CCC(C)c1ccccc1O (configuration not stated) ; yields the recorded call
OUTPUT: n

INPUT: // param item: `COc1cc(OC)nc(NC(=O)NS(=O)(=O)Nc2ccccc2C(=O)N(C)C)n1` ; yields the recorded call
OUTPUT: n

INPUT: // param item: `CCCCCc1ccc(O)cc1` ; yields the recorded call
OUTPUT: y

INPUT: // param item: `CN(C)CCOC(c1ccccc1)c1ccccc1` ; yields the recorded call
OUTPUT: y

INPUT: // param item: `O=P(O)(O)CCC(F)(F)C(F)(F)C(F)(F)C(F)(F)C(F)(F)C(F)(F)C(F)(F)C(F)(F)F` ; yields the recorded call
OUTPUT: n

INPUT: // param item: `O=C(NCc1ncc(C(F)(F)F)cc1Cl)c1c(Cl)cccc1Cl` ; yields the recorded call
OUTPUT: n

###

# Read-out: Collagen III, COL3A1 (gene 1281)
# Test Description: BSK_hDFCGF_CollagenIII: BioMAP Diversity Plus: hDFCGF Assay for Collagen III Biomarker Activity (AID 2283056)
# Condition Summary: primary human foreskin fibroblasts; actives raise or lower the signal
Calls of active or inactive are those of the source. How the source made its calls: active means hit-call score of the fitted dose curve at least 0.9, where 1 is the maximum; inactive means score below 0.9.
Observed Property: AC50

[
  {
    "Smiles Record": "C=COC(=O)C(C)(C)CCCCCC",
    "AC50": "31.2 µM (active)"
  },
  {
    "Smiles Record": "O=C(CC(=O)C(F)(F)C(F)(F)C(F)(F)F)c1cccs1",
    "AC50": "inactive"
  },
  {
    "Smiles Record": "O=C(NO)c1ccccc1",
    "AC50": "inactive"
  },
  {
    "Smiles Record": "COc1cccc(O)c1",
    "AC50": "inactive"
  },
  {
    "Smiles Record": "Clc1ccc(Nc2nnc(Cc3ccncc3)c3ccccc23)cc1",
    "AC50": "inactive"
  },
  {
    "Smiles Record": "Oc1ccc(Cc2ccccc2O)cc1",
    "AC50": "inactive"
  },
  {
    "Smiles Record": "CN(Cc1cnc2nc(N)nc(N)c2n1)c1ccc(C(=O)N[C@@H](CCC(=O)O)C(=O)O)cc1",
    "AC50": "inactive"
  },
  {
    "Smiles Record": "OCC(CO)(CBr)CBr",
    "AC50": "inactive"
  },
  {
    "Smiles Record": "C=CC(=O)OCCC(F)(F)C(F)(F)C(F)(F)C(F)(F)C(F)(F)C(F)(F)C(F)(F)C(F)(F)F",
    "AC50": "inactive"
  },
  {
    "Smiles Record": "CC(=O)Nc1ccc(O)cc1",
    "AC50": "inactive"
  }
]

Measured AC50, `Cc1cccc2c1ccc1ccccc12` : inactive

Measured AC50, `CC1=NN(c2ccccc2)C(=O)C1` : inactive

Measured AC50, `Cc1ccc(N=Nc2c(O)ccc3ccccc23)c(C)c1` : 6.8 µM (active)
